Each item that follows carries a reported melting point.
parameter: melting point

>>> df
                                    compound      parameter         result
 0           CC(C)(C)c1ccc(-c2ccc(C=O)o2)cc1  melting point    70 to 72 °C
 1                 Cc1sc2nc(C)n(N)c(=O)c2c1C  melting point  204 to 206 °C
 2               Cc1nc(-c2cnn(C)c2)sc1C(=O)O  melting point  230 to 232 °C
 3                        Cn1cnnc1Sc1ccccc1N  melting point  137 to 139 °C
 4                      COc1cc(Br)ccc1C(=O)O  melting point  154 to 156 °C
 5            O=C(O)c1ccc(Br)cc1Oc1ccc(F)cc1  melting point  187 to 189 °C
 6                NC(=S)c1cccnc1N1CCNC(=O)C1  melting point  189 to 191 °C
 7                           CN(C)c1nnc(S)s1  melting point  178 to 180 °C
 8         Cc1sc2ncnc(N3CCC(C(=O)O)CC3)c2c1C  melting point  244 to 246 °C
 9                    Nc1nc(-c2ccc(F)cc2)ns1  melting point  154 to 156 °C
10                         CCOC(=O)c1ccncc1N  melting point  173 to 175 °C
11                          CNC(=O)CC1CCNCC1  melting point  105 to 107 °C
12                     Cc1nn(C)c2c1NC(=O)CS2  melting point  197 to 199 °C
13  O=C(Nc1cccnc1)C(Cl)C(=O)c1ccccc1 (stereo not drawn)  melting point    86 to 90 °C
14                Cc1ccc2c(O)c(C(=O)O)cnc2n1  melting point  279 to 281 °C
15                  Cc1cccc(C2(C(=O)O)CC2)c1  melting point  107 to 109 °C
16               Cc1noc(C)c1COc1ccccc1C(=O)O  melting point  172 to 174 °C
17            CS(=O)(=O)c1ccc(CNC(=O)CCl)cc1  melting point  142 to 144 °C
18      CC1C=C(C(=O)O)CC1 (stereo not drawn)  melting point    33 to 35 °C
19                  FC(F)(F)c1n[nH]c2ccncc12  melting point  227 to 229 °C
20            COc1ccc(S(=O)(=O)Cl)cc1NC(C)=O  melting point  145 to 147 °C
21         O=S(=O)(Cl)c1ccc(Cl)c2c(Cl)cccc12  melting point  115 to 117 °C
22  CC(N)c1nc(-c2ccc(Br)cc2)cs1 (stereo not drawn)  melting point    77 to 79 °C
23  O=C(O)c1nn(-c2cc(C(F)(F)F)ccc2Cl)c2c1CCC2  melting point  229 to 231 °C
24    O=S(=O)(Nc1nc2ccccc2nc1Cl)c1cccc(Cl)c1  melting point  158 to 160 °C
25                  CC(C)c1ccc(N)c(C(=O)O)c1  melting point    96 to 98 °C
26         Cc1nn(-c2ccc(Cl)cc2)c(C)c1CC(=O)O  melting point  178 to 180 °C
27                    Cc1ccccc1COc1cccc(N)c1  melting point    61 to 63 °C
